Biological target: GNPAT_C54 (Homo sapiens)
Construct: endogenous in cells; host or cells: 22Rv1
Sequence (O15228 whole entry): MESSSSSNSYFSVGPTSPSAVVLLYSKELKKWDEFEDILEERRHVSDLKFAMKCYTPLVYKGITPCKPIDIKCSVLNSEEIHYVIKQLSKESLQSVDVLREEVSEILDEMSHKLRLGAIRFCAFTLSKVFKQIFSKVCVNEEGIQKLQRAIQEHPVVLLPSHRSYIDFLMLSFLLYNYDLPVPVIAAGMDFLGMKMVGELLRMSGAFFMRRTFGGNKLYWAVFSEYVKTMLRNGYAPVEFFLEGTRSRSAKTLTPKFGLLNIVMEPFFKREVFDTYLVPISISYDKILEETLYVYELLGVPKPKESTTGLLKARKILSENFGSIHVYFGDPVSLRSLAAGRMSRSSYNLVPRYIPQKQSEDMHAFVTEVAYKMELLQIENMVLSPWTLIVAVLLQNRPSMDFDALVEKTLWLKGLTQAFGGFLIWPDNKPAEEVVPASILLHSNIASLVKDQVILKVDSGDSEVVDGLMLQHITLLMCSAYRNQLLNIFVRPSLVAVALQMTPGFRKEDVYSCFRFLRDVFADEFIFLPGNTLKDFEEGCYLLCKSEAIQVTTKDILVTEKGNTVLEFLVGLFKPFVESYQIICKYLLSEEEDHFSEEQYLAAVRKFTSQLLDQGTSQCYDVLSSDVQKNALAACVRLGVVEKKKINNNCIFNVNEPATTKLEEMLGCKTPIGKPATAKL
Assay: IA-DTB cysteine engagement
Assay type: binding
Conditions: 22Rv1 cells, 20 μM probe, 1 h, relative to DMSO
readout label: % engagement GNPAT_C54 (%)

- C=CC(=O)N1C[C@H](c2ccc(Br)cc2)[C@@H]1C(=O)Nc1cccc2cccnc12 [MY-1B]: 91.5
- C=CC(=O)N1C[C@H](c2ccc(Br)cc2)[C@H]1C(=O)Nc1cccc2cccnc12 [MY-3B]: 77.5

P: C=CC(=O)N1C[C@@H](c2ccc(Br)cc2)[C@H]1C(=O)Nc1cccc2cccnc12 [MY-1A]
Q: C=CC(=O)N1C[C@H](c2ccc(Br)cc2)[C@H]1C(=O)Nc1cccc2cccnc12 [MY-3A]
Quick check, higher % engagement GNPAT_C54 between P and Q ? # answer = label of selected item
P
(P: 88.5%, Q: 54.25%)

---

Target: PRORP_C507 (Homo sapiens)
Construct: endogenous in cells; host or cells: 22Rv1
Sequence (O15091 46-583): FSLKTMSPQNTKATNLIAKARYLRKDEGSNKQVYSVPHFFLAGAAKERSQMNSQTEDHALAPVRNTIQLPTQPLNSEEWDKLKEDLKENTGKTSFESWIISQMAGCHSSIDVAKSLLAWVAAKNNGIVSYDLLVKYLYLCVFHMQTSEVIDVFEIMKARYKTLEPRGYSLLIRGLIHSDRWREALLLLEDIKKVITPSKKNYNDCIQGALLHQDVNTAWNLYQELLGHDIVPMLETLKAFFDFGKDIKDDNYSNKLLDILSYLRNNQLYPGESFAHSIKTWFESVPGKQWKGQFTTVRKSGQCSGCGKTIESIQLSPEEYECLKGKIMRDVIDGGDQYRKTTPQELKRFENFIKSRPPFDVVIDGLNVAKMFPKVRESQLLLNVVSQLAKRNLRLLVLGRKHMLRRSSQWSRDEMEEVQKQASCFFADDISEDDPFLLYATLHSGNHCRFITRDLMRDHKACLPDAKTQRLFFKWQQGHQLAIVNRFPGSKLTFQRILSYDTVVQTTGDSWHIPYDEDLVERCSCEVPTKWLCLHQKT
Assay: IA-DTB cysteine engagement
Type: binding
Details: 22Rv1 cells, 20 μM probe, 1 h, relative to DMSO
Procedure: Sample preparation: Cells (adherent: 15 cm dishes, suspension: 2 million cells/mL) were treated with electrophilic probes in situ for indicated times and concentrations, washed with ice-cold PBS, and flash frozen in liquid nitrogen. […] Whole cell lysates protein content was measured using a standard DC protein assay (Bio-Rad) and 500 μL (2 mg/mL protein content) were treated with 5 μL of 10 mM 1A-DTB (in DMSO) for 1 h at ambient temperature with occasional vortexing. […]
readout label: % engagement PRORP_C507 (%)

a: C=CC(=O)N1C[C@H](c2ccc(Br)cc2)[C@H]1C(=O)Nc1cccc2cccnc12 [MY-3B]
b: C=CC(=O)N1C[C@H](c2ccc(Br)cc2)[C@H]1C(=O)Nc1cccc2cccnc12 [MY-3A]
c: C=CC(=O)N1C[C@@H](c2ccc(Br)cc2)[C@H]1C(=O)Nc1cccc2cccnc12
d: C=CC(=O)N1C[C@H](c2ccc(Br)cc2)[C@@H]1C(=O)Nc1cccc2cccnc12
Rank the listed molecules by % engagement PRORP_C507, largest first. Labels, ranked as asked.
d, a, c, b
(d: 74.25%, a: 34.5%, c: 6.75%, b: 1.25%)

---

Biological target: LMNA_C570 (Homo sapiens)
Construct: endogenous in cells; host or cells: 22Rv1
Sequence (P02545 whole entry): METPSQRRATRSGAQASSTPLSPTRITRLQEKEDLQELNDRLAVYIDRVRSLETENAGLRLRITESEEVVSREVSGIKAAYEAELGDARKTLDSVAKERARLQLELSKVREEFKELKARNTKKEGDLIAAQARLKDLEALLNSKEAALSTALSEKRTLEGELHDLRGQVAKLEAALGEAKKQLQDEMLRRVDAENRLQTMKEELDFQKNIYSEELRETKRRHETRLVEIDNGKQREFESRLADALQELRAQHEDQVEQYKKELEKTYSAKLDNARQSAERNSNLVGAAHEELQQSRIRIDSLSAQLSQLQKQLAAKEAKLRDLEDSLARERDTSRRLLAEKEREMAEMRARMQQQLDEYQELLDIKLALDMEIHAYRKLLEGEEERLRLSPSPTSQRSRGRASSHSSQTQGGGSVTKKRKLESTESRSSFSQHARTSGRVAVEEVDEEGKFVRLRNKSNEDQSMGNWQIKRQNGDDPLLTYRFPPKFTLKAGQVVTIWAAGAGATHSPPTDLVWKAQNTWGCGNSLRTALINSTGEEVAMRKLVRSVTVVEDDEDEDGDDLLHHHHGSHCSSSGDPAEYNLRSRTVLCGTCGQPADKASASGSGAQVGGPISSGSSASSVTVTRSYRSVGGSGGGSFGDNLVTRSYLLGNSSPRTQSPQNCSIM
Assay: IA-DTB cysteine engagement
Type: binding
Settings: 22Rv1 cells, 20 μM probe, 1 h, relative to DMSO
readout label: % engagement LMNA_C570 (%)

- C=CC(=O)N1C[C@H](c2ccc(Br)cc2)[C@H]1C(=O)Nc1cccc2cccnc12 [MY-3B]: 70.5
- C=CC(=O)N1C[C@@H](c2ccc(Br)cc2)[C@H]1C(=O)Nc1cccc2cccnc12: 75
- C=CC(=O)N1C[C@H](c2ccc(Br)cc2)[C@@H]1C(=O)Nc1cccc2cccnc12: 70.5
- C=CC(=O)N1C[C@H](c2ccc(Br)cc2)[C@H]1C(=O)Nc1cccc2cccnc12 [MY-3A]: 75.5

---

Molecular target: CLUH_C333 (Homo sapiens, UniProt O75153)
Construct: endogenous in cells; host or cells: 22Rv1
Sequence (O75153 1-1309): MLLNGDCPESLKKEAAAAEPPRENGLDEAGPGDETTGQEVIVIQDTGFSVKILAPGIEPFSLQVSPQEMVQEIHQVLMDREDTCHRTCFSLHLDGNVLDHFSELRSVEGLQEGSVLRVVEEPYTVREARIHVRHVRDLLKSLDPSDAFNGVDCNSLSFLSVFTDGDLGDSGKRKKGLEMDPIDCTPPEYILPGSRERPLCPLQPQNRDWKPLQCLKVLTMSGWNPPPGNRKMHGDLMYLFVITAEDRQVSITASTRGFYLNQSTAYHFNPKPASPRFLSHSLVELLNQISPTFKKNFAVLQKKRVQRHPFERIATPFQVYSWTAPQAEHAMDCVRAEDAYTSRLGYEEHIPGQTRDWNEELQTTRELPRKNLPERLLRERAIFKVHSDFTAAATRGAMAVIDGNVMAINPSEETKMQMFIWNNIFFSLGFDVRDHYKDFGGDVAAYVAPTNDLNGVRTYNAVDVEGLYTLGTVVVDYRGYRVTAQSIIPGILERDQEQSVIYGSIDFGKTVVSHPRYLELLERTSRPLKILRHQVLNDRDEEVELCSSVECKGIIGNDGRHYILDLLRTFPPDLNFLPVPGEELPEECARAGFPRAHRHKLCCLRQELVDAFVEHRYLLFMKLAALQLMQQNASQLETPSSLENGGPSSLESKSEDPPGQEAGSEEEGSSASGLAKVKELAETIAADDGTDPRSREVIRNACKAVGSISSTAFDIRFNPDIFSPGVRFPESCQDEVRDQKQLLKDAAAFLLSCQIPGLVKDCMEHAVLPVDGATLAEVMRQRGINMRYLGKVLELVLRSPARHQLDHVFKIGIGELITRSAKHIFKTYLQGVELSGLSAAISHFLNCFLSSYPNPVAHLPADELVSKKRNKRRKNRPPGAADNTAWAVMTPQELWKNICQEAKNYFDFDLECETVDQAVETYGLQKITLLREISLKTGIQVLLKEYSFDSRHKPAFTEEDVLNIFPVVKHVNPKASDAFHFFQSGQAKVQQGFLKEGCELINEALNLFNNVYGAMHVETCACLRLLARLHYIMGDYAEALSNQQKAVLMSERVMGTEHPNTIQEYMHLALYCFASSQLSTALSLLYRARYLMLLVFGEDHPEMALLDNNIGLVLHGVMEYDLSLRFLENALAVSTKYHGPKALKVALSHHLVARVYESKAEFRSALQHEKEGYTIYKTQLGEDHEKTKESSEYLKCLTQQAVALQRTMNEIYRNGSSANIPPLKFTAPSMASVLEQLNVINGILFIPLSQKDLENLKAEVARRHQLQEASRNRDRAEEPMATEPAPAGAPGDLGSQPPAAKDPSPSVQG
Assay: IA-DTB cysteine engagement
Format: binding
Settings: 22Rv1 cells, 20 μM probe, 1 h, relative to DMSO
Experimental: Sample preparation: Cells (adherent: 15 cm dishes, suspension: 2 million cells/mL) were treated with electrophilic probes in situ for indicated times and concentrations, washed with ice-cold PBS, and flash frozen in liquid nitrogen. […] Whole cell lysates protein content was measured using a standard DC protein assay (Bio-Rad) and 500 μL (2 mg/mL protein content) were treated with 5 μL of 10 mM 1A-DTB (in DMSO) for 1 h at ambient temperature with occasional vortexing. […]
readout label: % engagement CLUH_C333 (%)

Completed entries (count: 2):
* C=CC(=O)N1C[C@H](c2ccc(Br)cc2)[C@H]1C(=O)Nc1cccc2cccnc12 [MY-3A] | 0.5
* C=CC(=O)N1C[C@H](c2ccc(Br)cc2)[C@H]1C(=O)Nc1cccc2cccnc12 [MY-3B] | −4.5

I: C=CC(=O)N1C[C@@H](c2ccc(Br)cc2)[C@H]1C(=O)Nc1cccc2cccnc12 [MY-1A]
II: C=CC(=O)N1C[C@H](c2ccc(Br)cc2)[C@@H]1C(=O)Nc1cccc2cccnc12 [MY-1B]
Quick check, higher % engagement CLUH_C333 between I and II ? # answer = label of selected item
I
(I: 81%, II: 13%)
